target: Phosphoheptose isomerase (Escherichia coli (strain K12))
Sequence (P63224 whole entry, looked up): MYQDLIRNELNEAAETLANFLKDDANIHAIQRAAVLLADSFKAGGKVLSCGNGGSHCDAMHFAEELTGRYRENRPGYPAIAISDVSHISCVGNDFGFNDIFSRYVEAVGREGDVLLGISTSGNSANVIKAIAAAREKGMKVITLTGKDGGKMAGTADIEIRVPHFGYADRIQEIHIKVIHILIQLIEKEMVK
pIC50: −log10 of the molar value.

{"Smiles String": "O=CN(O)C[C@H](O)[C@H](O)[C@H](O)COP(=O)(O)O", "Target Of Assay": "Phosphoheptose isomerase (Escherichia coli (strain K12))", "pIC50": 8.70}

Reference for the values: ChEMBL document CHEMBL5543143
